Test system: Hepatotoxicity
assay_text: FDA HLAED, alkaline phosphatase increase
conditions: human
measure: Alkaline Phosphatase Increase - Number of Reports

Please review the following examples before continuing.
CC(C)(C)NC(=O)[C@H]1CC[C@H]2[C@@H]3CC[C@H]4NC(=O)C=C[C@]4(C)[C@H]3CC[C@]12C [FINASTERIDE] : >= 4
CC(C)(C(=O)O)c1ccc(C(O)CCCN2CCC(C(O)(c3ccccc3)c3ccccc3)CC2)cc1 (centres undefined) [FEXOFENADINE] : < 4
CO/N=C(\C(=O)N[C@@H]1C(=O)N2C(C(=O)O)=C(CSc3nc(=O)c(=O)[nH]n3C)CS[C@H]12)c1csc(N)n1 : >= 4
NC(=O)N1c2ccccc2C=Cc2ccccc21 [CARBAMAZEPINE] : >= 4
CC(=O)CC(c1ccccc1)c1c(O)c2ccccc2oc1=O (centres undefined) : >= 4
NCCNCCNCCN : < 4

Problem: Look up Hepatotoxicity data: Alkaline Phosphatase Increase - Number of Reports of Nc1nc2c(ncn2COCCO)c(=O)[nH]1 , then report it.
Result: >= 4

====

Tested on: Hepatotoxicity
assay_text: FDA HLAED, serum glutamic pyruvic transaminase (SGPT) increase
conditions: human
measure: SGPT Increase - Activity Score

C[C@@H](CN1CC(=O)NC(=O)C1)N1CC(=O)NC(=O)C1 [DEXRAZOXANE] : Inactive
C=C1/C(=C\C=C2/CCC[C@]3(C)[C@@H]([C@H](C)CCCC(C)(C)O)CC[C@@H]23)C[C@@H](O)C[C@@H]1O [CALCITRIOL] : Inactive
CCCCC(C)(O)C/C=C/[C@H]1[C@H](O)CC(=O)[C@@H]1CCCCCCC(=O)OC (stereo not given in full) [MISOPROSTOL] : Inactive

====

Tested on: Hepatotoxicity
assay_text: FDA HLAED, serum glutamic pyruvic transaminase (SGPT) increase
conditions: human
measure: SGPT Increase - Number of Reports

Please review the following examples before continuing.
CNCCC(Oc1ccc(C(F)(F)F)cc1)c1ccccc1 (stereo not given) : >= 4
COCC1=C(C(=O)OC(C)OC(=O)OC(C)C)N2C(=O)[C@@H](NC(=O)/C(=N\OC)c3csc(N)n3)[C@H]2SC1 (stereo not given in full) : >= 4
CN1CCN(C2=Nc3cc(Cl)ccc3Nc3ccccc32)CC1 : >= 4
COc1cccc2c1C(=O)c1c(O)c3c(c(O)c1C2=O)C[C@@](O)(C(C)=O)C[C@@H]3O[C@H]1C[C@H](N)[C@H](O)[C@H](C)O1 : < 4

Next molecule, please.
Problem: Fill in SGPT Increase - Number of Reports for record C[C@H]1C[C@H]2[C@@H]3CCC4=CC(=O)C=C[C@]4(C)[C@@]3(F)[C@@H](O)C[C@]2(C)[C@@]1(O)C(=O)CCl
Result: < 4

====

Test system: Hepatotoxicity
assay_text: FDA HLAED, lactate dehydrogenase (LDH) increase
conditions: human
measure: LDH Increase - Number of Reports

Please review the following examples before continuing.
CC[C@@]1(O)C(=O)OCc2c1cc1n(c2=O)Cc2cc3c(CN(C)C)c(O)ccc3nc2-1 : < 4
Nc1nc2c(ncn2COCCO)c(=O)[nH]1 : < 4
CC(C(=O)O)c1ccc(-c2ccccc2)c(F)c1 (stereo unspecified) : < 4
CC(C)OC(=O)CCC/C=C\C[C@@H]1[C@@H](CC[C@@H](O)CCc2ccccc2)[C@H](O)C[C@@H]1O : < 4
NCCNCCNCCN : < 4
NNC(=O)c1ccncc1 : >= 4

Problem: Fill in LDH Increase - Number of Reports for record CC(C)(O/N=C(\C(=O)N[C@@H]1C(=O)N2C(C(=O)[O-])=C(C[n+]3ccccc3)CS[C@H]12)c1csc(N)n1)C(=O)O
Result: < 4

Problem: Fill in LDH Increase - Number of Reports for record CC(C)(C)NC[C@H](O)COc1cccc2c1CCCC2=O
Result: < 4

Problem: Fill in LDH Increase - Number of Reports for record CC[C@H]1OC(=O)[C@H](C)[C@@H](O[C@H]2C[C@@](C)(OC)[C@@H](O)[C@H](C)O2)[C@H](C)[C@@H](O[C@@H]2O[C@H](C)C[C@H](N(C)C)[C@H]2O)[C@](C)(OC)C[C@@H](C)C(=O)[C@H](C)[C@@H](O)[C@]1(C)O
Result: >= 4

Problem: Fill in LDH Increase - Number of Reports for record CO[C@@]1(NC(=O)CSCC#N)C(=O)N2C(C(=O)O)=C(CSc3nnnn3C)CS[C@@H]21
Result: < 4

Problem: Fill in LDH Increase - Number of Reports for record CO[C@@]1(NC(=O)Cc2cccs2)C(=O)N2C(C(=O)O)=C(COC(N)=O)CS[C@@H]21
Result: < 4

====

Tested on: Hepatotoxicity
assay_text: FDA HLAED, serum glutamic oxaloacetic transaminase (SGOT) increase
conditions: human
measure: SGOT Increase - Activity Score

Please review the following examples before continuing.
CCCCc1oc2ccccc2c1C(=O)c1cc(I)c(OCCN(CC)CC)c(I)c1 [AMIODARONE] : Inactive
Cc1cn([C@H]2C[C@H](N=[N+]=[N-])[C@@H](CO)O2)c(=O)[nH]c1=O [ZIDOVUDINE] : Active
Nc1nc2c(ncn2COCCO)c(=O)[nH]1 [ACYCLOVIR] : Inactive
CCc1cccc2c3c([nH]c12)C(CC)(CC(=O)O)OCC3 (centres undefined) [ETODOLAC] : Inactive
C[C@H](CCC(=O)O)[C@H]1CC[C@H]2[C@@H]3[C@@H](O)C[C@@H]4C[C@H](O)CC[C@]4(C)[C@H]3CC[C@]12C [URSODIOL] : Active
CO[C@@]1(NC(=O)CSCC#N)C(=O)N2C(C(=O)O)=C(CSc3nnnn3C)CS[C@@H]21 [CEFMETAZOLE] : Inactive
CCOC(=O)[C@H](CCc1ccccc1)N[C@@H](C)C(=O)N1[C@H](C(=O)O)C[C@H]2CCCC[C@@H]21 [TRANDOLAPRIL] : Inactive
CN1CC[C@]23c4c5ccc(O)c4O[C@H]2C(=O)CC[C@H]3[C@H]1C5 [HYDROMORPHONE] : Inactive

Problem: Fill in SGOT Increase - Activity Score for record CCn1cc(C(=O)O)c(=O)c2cc(F)c(N3CCNCC3)nc21 [ENOXACIN]
Result: Inactive

Problem: Fill in SGOT Increase - Activity Score for record CC(C)[C@H](N)C(=O)OCCOCn1cnc2c(=O)[nH]c(N)nc21 [VALACYCLOVIR]
Result: Inactive

Problem: Fill in SGOT Increase - Activity Score for record Nc1ccn([C@H]2CC[C@@H](CO)O2)c(=O)n1 [ZALCITABINE]
Result: Active

Problem: Fill in SGOT Increase - Activity Score for record CC(C)(C)NC[C@H](O)COc1ccccc1C1CCCC1 [PENBUTOLOL]
Result: Inactive

Problem: Fill in SGOT Increase - Activity Score for record FC(F)OC(F)C(F)(F)F (centres undefined)
Result: Inactive

====

Tested on: Hepatotoxicity
assay_text: FDA HLAED, serum glutamic pyruvic transaminase (SGPT) increase
conditions: human
Hi, to clarify the labels: Met covers SGPT Increase - Index Value from 2 upward, Not met covers anything below 2.

CC(C)c1c(C(=O)Nc2ccccc2)c(-c2ccccc2)c(-c2ccc(F)cc2)n1CC[C@@H](O)C[C@@H](O)CC(=O)O [ATORVASTATIN] : Met
CCCCC(=O)O[C@H]1CC[C@H]2[C@@H]3CCc4cc(O)ccc4[C@H]3CC[C@]12C [ESTRADIOL VALERATE] : Met
CC1(C)O[C@@H]2[C@@H](CO[C@@]3(COS(N)(=O)=O)OC(C)(C)O[C@@H]23)O1 [TOPIRAMATE] : Not met
O=C(O)P(=O)(O)O [FOSCARNET] : Met
O=C(O)Cc1ccccc1Nc1c(Cl)cccc1Cl [DICLOFENAC] : Met

Problem: SGPT Increase - Index Value >= 2 for C[C@]12CC[C@H]3[C@@H](CCC4=CC(=O)CC[C@@]43C)[C@@H]1CC[C@@H]2O [TESTOSTERONE] ?
Result: Met

====

Tested on: Hepatotoxicity
assay_text: FDA HLAED, alkaline phosphatase increase
conditions: human
measure: Alkaline Phosphatase Increase - Number of Reports

Please review the following examples before continuing.
C[C@H]1C[C@H]2[C@@H]3C[C@H](F)C4=CC(=O)C=C[C@]4(C)[C@@]3(F)[C@@H](O)C[C@]2(C)[C@@]1(O)C(=O)CCl : < 4
CCCCCCC(=O)O[C@H]1CC[C@H]2[C@@H]3CCC4=CC(=O)CC[C@]4(C)[C@H]3CC[C@]12C [TESTOSTERONE ENANTHATE] : < 4
N=C(N)NCC1COC2(CCCCC2)O1 (configuration not stated) : < 4
COCCOC(=O)C1=C(C)NC(C)=C(C(=O)OC(C)C)C1c1cccc([N+](=O)[O-])c1 (configuration not stated) : < 4
CC(C)C(=O)Nc1ccc([N+](=O)[O-])c(C(F)(F)F)c1 [FLUTAMIDE] : >= 4
CC(C)NCC(O)c1ccc(NS(C)(=O)=O)cc1 (configuration not stated) : < 4
CC(=O)O[C@H]1C[C@@H]2CC[C@@H]3[C@H](CC[C@@]4(C)[C@H]3C[C@H](N3CC[N+](C)(C)CC3)[C@@H]4OC(C)=O)[C@@]2(C)C[C@@H]1N1CC[N+](C)(C)CC1.[Br-].[Br-] [PIPECURONIUM BROMIDE] : < 4
CC(=O)Nc1ccc(O)cc1 : >= 4

Problem: Fill in Alkaline Phosphatase Increase - Number of Reports for record CCC(=O)Oc1ccc2c(c1)CC[C@@H]1[C@@H]2CC[C@]2(C)[C@@H](OC(=O)CC)CC[C@@H]12 [ESTRADIOL DIPROPIONATE]
Result: >= 4

Problem: Fill in Alkaline Phosphatase Increase - Number of Reports for record OC(Cn1cncn1)(Cn1cncn1)c1ccc(F)cc1F
Result: >= 4

Problem: Fill in Alkaline Phosphatase Increase - Number of Reports for record Nc1cc(-c2ccncc2)c[nH]c1=O
Result: < 4

Problem: Fill in Alkaline Phosphatase Increase - Number of Reports for record CC(=O)N1CCN(c2ccc(OCC3COC(Cn4ccnc4)(c4ccc(Cl)cc4Cl)O3)cc2)CC1 (configuration not stated)
Result: >= 4
